Test system: pERK in NCI-H358 cells
Assay: Cell-based pERK HTRF assay
Conditions: Homo sapiens, 0.5 h, 30 min incubation
This section presents molecules with their documented IC50 values.

// known answers, use as guide
C=CC(=O)N1C[C@H](C)N(c2nc(OC[C@@]34CCCN3C[C@H](F)C4)nc3cc(-c4ccc(F)c5sc(N)c(C#N)c45)c(C(F)(F)F)nc23)C[C@H]1C [Compound 10] : ≤ 100 nM
C=CC(=O)N1CCC(N(C)c2nc(OC[C@@H]3CCCN3C)nc3c(F)c(-c4ccc(F)c5sc(N)c(C#N)c45)ncc23)[C@H]1COC (stereo partly drawn) [Compound 26] : 100 to 1000 nM
C=CC(=O)N1CCC(N(CC)c2nc(OC[C@@]34CCCN3C[C@H](F)C4)nc3c(F)c(-c4ccc(F)c5sc(N)c(C#N)c45)ncc23)[C@H]1COC (stereo partly drawn) [Compound 25] : 100 to 1000 nM
C=CC(=O)N1CCC(N(C)c2nc(OC[C@@H]3C[C@@H](F)CN3C)nc3c(F)c(-c4ccc(F)c5sc(N)c(C#N)c45)ncc23)[C@H]1C (stereo partly drawn) [Compound 23] : 100 to 1000 nM
C=CC(=O)N1CC[C@@H](N(CC)c2nc(OC[C@@]34CCCN3C[C@H](F)C4)nc3c(Cl)c(-c4ccc(F)c5sc(N)c(C#N)c45)ncc23)[C@@H]1C [Compound 51] : ≤ 100 nM

Exercise: Name the recorded IC50 for C=CC(=O)N1CCC(N(C)c2ncnc3c(F)c(-c4ccc(F)c5sc(N)c(C#N)c45)ncc23)[C@H]1C (stereo partly drawn) [Compound 36] .
Solution: > 1000 nM

Exercise: Param item = C=CC(=O)N1C[C@H](F)[C@@H](N(C)c2nc(OC[C@@]34CCCN3C[C@H](F)C4)nc3c(F)c(-c4ccc(F)c5sc(N)c(C#N)c45)ncc23)C1 [Compound 12] ; retrieve measured IC50.
Solution: ≤ 100 nM

Exercise: I would be grateful if you could share the reported IC50 for C=CC(=O)N1CC[C@@H](N(C)c2nc(OC[C@@]34CCCN3C[C@H](F)C4)nc3cc(-c4ccc(F)c5sc(N)c(C#N)c45)c(C(F)(F)F)nc23)[C@H]1C [Compound 15] .
Solution: ≤ 100 nM

Exercise: # lookup: IC50 of C=CC(=O)N1CCC(N(C)c2nc(OC[C@@H]3C[C@@H](OC)CN3C)nc3c(F)c(-c4ccc(F)c5sc(N)c(C#N)c45)ncc23)[C@H]1C (stereo partly drawn) [Compound 28]
Solution: 100 to 1000 nM

Exercise: I am curious: what IC50 value has been reported for C=CC(=O)N1CC[C@@H](N(CC)c2nc(OC[C@@]34CCCN3C[C@H](F)C4)nc3c(Cl)c(-c4ccc(F)c5sc(N)c(C#N)c45)ncc23)[C@H]1CC [Compound 43] ?
Solution: 100 to 1000 nM

---

System: pERK in NCI-H358 cells
Assay: Cell-based pERK HTRF assay
Settings: Homo sapiens, 0.5 h, 30 min incubation
IC50 values, listed per item

C=CC(=O)N1CC[C@@H](N(CC)c2nc(OC[C@@]34CCCN3C[C@H](F)C4)nc3c(F)c(-c4ccc(F)c5sc(N)c(C#N)c45)ncc23)[C@H]1CC : 100 to 1000 nM
C=CC(=O)N1CC[C@@H](N(CC)c2nc(OC[C@@]34CCCN3C[C@H](F)C4)nc3c(F)c(-c4ccc(F)c5sc(N)c(C#N)c45)ncc23)[C@@H]1CC : 100 to 1000 nM
C=CC(=O)N1CC[C@@H](N(C)c2nc(OC[C@@]34CCCN3C[C@H](F)C4)nc3nc(-c4ccc(F)c5sc(N)c(C#N)c45)ccc23)C1 : > 1000 nM

Exercise: Data request, read-out IC50, for C=CC(=O)N1CCC(N(C)c2nc(OC[C@@]34CCCN3C[C@H](F)C4)nc3c(Cl)c(-c4ccc(F)c5sc(N)c(C#N)c45)ncc23)[C@H]1COC (mixture of isomers)
Solution: ≤ 100 nM

Exercise: Look at this compound and give its reported IC50. C=CC(=O)N1C[C@H](N(C)c2nc(OC[C@@]34CCCN3C[C@H](F)C4)nc3cc(-c4ccc(F)c5sc(N)c(C#N)c45)c(C(F)(F)F)nc23)C[C@H]1C
Solution: ≤ 100 nM

Exercise: Field request: IC50 | item: C=CC(=O)N1CCC(N(CC)c2nc(OC[C@@]34CCCN3C[C@H](F)C4)nc3c(F)c(-c4ccc(F)c5sc(N)c(C#N)c45)ncc23)[C@H]1C (some centres unmarked)
Solution: ≤ 100 nM

Exercise: What IC50 value was documented for this compound, C=CC(=O)N1CC[C@@H](N(C)c2nc(OC[C@@]34CCCN3C[C@H](F)C4)nc3c(Cl)c(-c4ccc(F)c5sc(N)c(C#N)c45)ncc23)[C@@H]1C ?
Solution: ≤ 100 nM

Exercise: So what does the record say about IC50 for C=CC(=O)N1CCC(N(CC)c2nc(OC[C@@]34CCCN3C[C@H](F)C4)nc3c(Cl)c(-c4ccc(F)c5sc(N)c(C#N)c45)ncc23)[C@H]1CC (some centres unmarked) ?
Solution: 100 to 1000 nM
